# test: UV absorption properties (λmax, molar extinction coefficient ε, efficiency E 1%, 1 cm)
# Type: physicochemical
# experimental-setup: values in order of the λmax values
readout-label: ε (molar extinction coefficient) (M⁻¹ cm⁻¹)

[[record]]
compound = "C=CC(=O)C1=CN(CC(C)C)CCC1(C)C [Compound 32]"
measurement = 20500

[[record]]
compound = "C=CC(=O)C1=CN(C(C)(C)C)CCC1(C)C [Compound 154]"
measurement = 24907

[[record]]
compound = "CC1(C)CCN(c2ccc(C(C)(C)C)cc2)C=C1C(=O)C(F)(F)F [Compound 194]"
measurement = 42723

[[record]]
compound = "CCC(=O)O/C(=C\\C1=CC(C)(C)CCN1CC(C)C)CC [Compound 60]"
measurement = 20000

[[record]]
compound = "CC1(C)CCN(C(C)(C)C)C=C1C(=S)Nc1ccccc1 [Compound 182]"
measurement = 20881

[[record]]
compound = "COc1ccc(N2C=C(C(=O)C3CCCC3=O)C(C)(C)CC2)cc1 (stereo not drawn) [Compound 171]"
measurement = 30675

[[record]]
compound = "CC1(C)CCN(C(C)(C)C)C=C1C(=O)c1ccncc1 [Compound 169]"
measurement = 23556

[[record]]
compound = "CN(C(=O)C1=CN(C(C)(C)C)CCC1(C)C)c1ccccc1 [Compound 180]"
measurement = 15174

[[record]]
compound = "CCC(=O)C1=CN(c2cccc3ccccc23)CCC1(C)C [Compound 178]"
measurement = 23247

[[record]]
compound = "CC1(C)CCN(C(C)(C)C)C=C1C(=O)c1ccc(C(=O)O)cc1 [Compound 160]"
measurement = 17300

[[record]]
compound = "CN(C)c1ccc(C(=O)C2=CN(C(C)(C)C)CCC2(C)C)cc1 [Compound 157]"
measurement = 24966

[[record]]
compound = "CC(C)CN1C=C(C(=O)/C=C/c2ccccc2)C(C)(C)CC1 [Compound 31]"
measurement = 16000

[[record]]
compound = "CC(C)CN1C=C(C(=O)c2ccc(-c3ccccc3)cc2)C(C)(C)CC1 [Compound 19]"
measurement = 18000

[[record]]
compound = "CC1(C)CCN(C(C)(C)C)C=C1C(=O)Nc1ccc(NC(=O)C2=CN(C(C)(C)C)CCC2(C)C)cc1 [Compound 187]"
measurement = 71962

[[record]]
compound = "CCC(=O)C1=CN(c2ccc(C(C)(C)C)cc2)CCC1(C)C [Compound 177]"
measurement = 31955

[[record]]
compound = "C=CC(=O)C1=CN(c2ccc(OC)cc2)CCC1(C)C [Compound 53]"
measurement = 21500

[[record]]
compound = "C=C/C=C/C(=O)C1=CN(CC(C)C)CCC1(C)C [Compound 38]"
measurement = 18000

[[record]]
compound = "CC1(C)CCN(c2ccc(C(C)(C)C)cc2)C=C1C(=O)C1c2ccccc2-c2ccccc21 [Compound 205]"
measurement = 30745

[[record]]
compound = "CC1(C)CCN(c2ccccc2)C=C1C(=O)c1ccc(Br)cc1 [Compound 49]"
measurement = 23300

[[record]]
compound = "COc1ccc(N2C=C(C(=O)COc3ccccc3)C(C)(C)CC2)cc1 [Compound 173]"
measurement = 26633

[[record]]
compound = "CCCCCCCC(=O)C1=CN(c2ccc(N(C)C)cc2)CCC1(C)C [Compound 175]"
measurement = 28040

[[record]]
compound = "CCC(=O)C1=CN(c2ccc(C)cc2)CCC1(C)C [Compound 176]"
measurement = 34608

[[record]]
compound = "CCC(=O)C1=CN(c2ccc(OC)cc2)CCC1(C)C [Compound 52]"
measurement = 23500

[[record]]
compound = "CN(C)c1ccc(N2C=C(C(=O)C(F)(F)F)C(C)(C)CC2)cc1 [Compound 196]"
measurement = 32744

[[record]]
compound = "CC(C)CN1C=C(C(=O)c2cc(C(=O)C3=CN(CC(C)C)CCC3(C)C)cc(C(=O)C3=CN(CC(C)C)CCC3(C)C)c2)C(C)(C)CC1 [Compound 22]"
measurement = 33000

[[record]]
compound = "Cc1ccc(N2C=C(C(=O)C(F)(F)F)C(C)(C)CC2)cc1 [Compound 197]"
measurement = 43513

[[record]]
compound = "C=C(C)CC(=O)C1=CN(CC(C)C)CCC1(C)C [Compound 27]"
measurement = 14500

